- Target under test: Carnitine O-palmitoyltransferase 1, liver isoform (Rattus norvegicus, UniProt P32198)
- Sequence (P32198 whole entry, canonical isoform): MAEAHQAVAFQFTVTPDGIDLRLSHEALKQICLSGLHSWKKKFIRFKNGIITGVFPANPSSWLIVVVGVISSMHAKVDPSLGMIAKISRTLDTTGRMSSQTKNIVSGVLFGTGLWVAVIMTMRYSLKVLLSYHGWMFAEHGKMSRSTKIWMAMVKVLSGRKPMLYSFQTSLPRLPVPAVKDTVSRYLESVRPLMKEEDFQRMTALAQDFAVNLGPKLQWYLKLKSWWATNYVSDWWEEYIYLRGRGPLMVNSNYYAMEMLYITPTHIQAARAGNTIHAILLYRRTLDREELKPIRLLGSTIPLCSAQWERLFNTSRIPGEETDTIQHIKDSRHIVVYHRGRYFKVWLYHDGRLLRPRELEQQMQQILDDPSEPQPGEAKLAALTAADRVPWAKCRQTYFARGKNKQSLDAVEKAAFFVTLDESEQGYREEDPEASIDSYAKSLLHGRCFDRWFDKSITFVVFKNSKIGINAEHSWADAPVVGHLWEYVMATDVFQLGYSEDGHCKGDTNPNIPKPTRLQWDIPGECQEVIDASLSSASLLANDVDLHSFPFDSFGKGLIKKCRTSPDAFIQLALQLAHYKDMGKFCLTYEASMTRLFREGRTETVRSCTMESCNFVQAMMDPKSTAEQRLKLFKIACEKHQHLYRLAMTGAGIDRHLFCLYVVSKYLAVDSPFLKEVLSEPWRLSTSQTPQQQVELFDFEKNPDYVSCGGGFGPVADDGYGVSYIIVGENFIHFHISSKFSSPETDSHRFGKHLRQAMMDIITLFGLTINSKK
- Measurement notes: Inhibition of rat CPT1A
Property label: IC50

INPUT: // IC50 lookup, key: CCCCc1ccc(NC(=O)OCCN2CCCCC2CC(C2CCCCC2)C2CCCCC2)cc1 (stereo unspecified)
OUTPUT: > 10 µM

----------
- Target under test: Carnitine O-palmitoyltransferase 1, liver isoform (Homo sapiens)
- Sequence (P50416 whole entry, canonical isoform): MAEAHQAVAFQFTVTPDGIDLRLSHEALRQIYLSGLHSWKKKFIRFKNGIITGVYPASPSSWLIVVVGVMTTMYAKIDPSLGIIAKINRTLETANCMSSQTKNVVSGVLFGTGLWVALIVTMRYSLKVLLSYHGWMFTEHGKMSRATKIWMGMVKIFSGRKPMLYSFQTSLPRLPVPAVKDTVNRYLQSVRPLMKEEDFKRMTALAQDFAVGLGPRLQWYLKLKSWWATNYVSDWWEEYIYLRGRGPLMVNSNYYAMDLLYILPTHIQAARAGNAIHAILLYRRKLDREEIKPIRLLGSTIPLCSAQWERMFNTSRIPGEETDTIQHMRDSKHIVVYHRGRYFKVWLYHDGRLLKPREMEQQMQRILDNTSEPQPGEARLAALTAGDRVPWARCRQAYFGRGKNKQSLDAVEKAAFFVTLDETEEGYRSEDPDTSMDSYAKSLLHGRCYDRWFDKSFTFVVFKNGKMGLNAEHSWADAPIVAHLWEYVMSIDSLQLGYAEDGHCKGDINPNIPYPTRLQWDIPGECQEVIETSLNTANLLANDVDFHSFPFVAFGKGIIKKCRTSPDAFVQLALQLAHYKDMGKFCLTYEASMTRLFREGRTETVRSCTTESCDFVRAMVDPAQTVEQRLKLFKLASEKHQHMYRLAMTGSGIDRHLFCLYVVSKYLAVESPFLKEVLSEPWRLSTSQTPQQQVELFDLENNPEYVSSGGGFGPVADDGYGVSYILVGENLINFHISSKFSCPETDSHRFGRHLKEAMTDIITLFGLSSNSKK
- Measurement notes: Inhibition of human CPT1A expressed in Saccharomyces cerevisiae mitochondria assessed as palmitoylcarnitine by HPLC method
pIC50: −log10 of the molar value.
Property label: pIC50

Compound	Observed
CCCCCc1ccc(S(=O)(=O)NC2(CC(=O)[O-])CC[N+](C)(C)CC2)cc1	> 6.00

Please turn your attention to the following entry.
INPUT: // pIC50 lookup, key: CCCCCc1ccc(S(=O)(=O)NC2(CC(=O)[O-])CCC[N+](C)(C)C2)cc1 (configuration not stated)
OUTPUT: > 6.00
